test system: c-Myc; assay: c-Myc immunofluorescence assay; assay type: cell-based, human; conditions: A549 cells, 24 hours treatment, anti-c-Myc immunofluorescence
Counter-ions that a name gives are not always drawn.
Recorded Metric: Myc Efficacy (−LogEC50)

Worked examples follow.
CCN(CC)CCCNC(=O)c1ccc2c(c1)sc1nc(-c3ccc(CNC4CC4)cc3F)cn12	+++ (+++ ≥6)
Cc1cccc(-c2cn3c(n2)sc2cc(NC(=O)N4CCNCC4)ccc23)c1	+ (+ >3 and <5)
NC(=O)c1ccc2c(c1)sc1nc(-c3ccc(C4CCNC4)cc3F)cn12 (centres unmarked)	+++ (+++ ≥6)
Cc1ccc(-c2cn3c(n2)sc2cc(C(=O)NC[C@H]4CCNC4)ccc23)cc1 [compound 114, formate]	++ (++ ≥5 and <6)
CCN(CC)CCCNC(=O)c1ccc2c(c1)sc1nc(-c3ccc(C(=O)N(C)C)cc3)cn12	+ (+ >3 and <5)

Field: Myc Efficacy (−LogEC50) (c-Myc). Entry: `CCN(CC)CCCNC(=O)c1ccc2c(c1)sc1nc(-c3cccc(C(=O)NC)c3)cn12` + (+ >3 and <5)

Param readout= Myc Efficacy (−LogEC50); system= c-Myc; entry= `CCOc1ccc(-c2cn3c(n2)sc2cc(C(=O)N4CCCCCC4)ccc23)cc1` ; returns value. + (+ >3 and <5)

GET /values?readout=Myc Efficacy (−LogEC50)&system=c-Myc&item= `CNC(=O)c1ccc(-c2cn3c(n2)sc2cc(C(=O)N[C@H]4CCCN(C)C4)ccc23)cc1` ++ (++ ≥5 and <6)

----------
system: c-Myc; test: c-Myc immunofluorescence assay; assay type: cell-based, human; conditions: A549 cells, 24 hours treatment, anti-c-Myc immunofluorescence
Recorded Metric: Myc Efficacy (−LogEC50)

These solved cases illustrate the format of a correct answer.
CCN(CC)CCCNC(=O)c1ccc2c(c1)sc1nc(-c3ccc(C(=O)NC(C)C)cc3)cn12	+ (+ >3 and <5)
O=C(NCCCN1CCCCC1)c1ccc2c(c1)sc1nc(-c3ccccc3)cn12	+++ (+++ ≥6)
CN1CCC(NC(=O)c2ccc3c(c2)sc2nc(-c4ccc(C5CC(C#N)CN5)cc4F)cn23)CC1 (stereo not drawn)	+++ (+++ ≥6)
O=C(N[C@@H]1CCOC1)c1ccc2c(c1)sc1nc(-c3ccc(C4CCCN4)cc3F)cn12 (stereo partly drawn) [524R]	++ (++ ≥5 and <6)
O=C(NCCCN1CCC(F)CC1)c1ccc2c(c1)sc1nc(-c3ccc([C@@H]4CCCO4)cc3F)cn12 [Compound 428S]	+++ (+++ ≥6)

Okay, next one:
State the recorded Myc Efficacy (−LogEC50) for this entry: `CNC(=O)c1ccc(-c2cn3c(n2)sc2cc(C(=O)NCC4(N(C)C)CCCCC4)ccc23)cc1` + (+ >3 and <5)

----------
test system: c-Myc; test: c-Myc immunofluorescence assay; format: cell-based, human; settings: A549 cells, 24 hours treatment, anti-c-Myc immunofluorescence
Recorded Metric: Myc Efficacy (−LogEC50)

Past entries and their recorded results:
Cc1cccc(-c2cn3c(n2)sc2cc(C(=O)NCCCN4CCCC4)ccc23)c1	++ (++ ≥5 and <6)
O=C(NCCCN1CCC(F)CC1)c1cc2sc3nc(-c4ccc([C@H]5CCCN5)cc4F)cn3c2cn1 [Compound 509R]	+++ (+++ ≥6)
O=C(NCCCN1CCC(F)CC1)c1ccc2c(c1)sc1nc(-c3ccc([C@@H]4CCCN4)cc3F)cn12	+++ (+++ ≥6)
CN1CCC(NC(=O)c2ccc3c(c2)sc2nc(-c4ccc(C5(O)CCNC5)cc4F)cn23)CC1 (centres unmarked)	+++ (+++ ≥6)
CNC(=O)c1ccc2c(c1)sc1nc(-c3ccc(C4CCNC4)cc3F)cn12 (centres unmarked)	+++ (+++ ≥6)

// below: Myc Efficacy (−LogEC50) requested for another compound
Consider the compound `CN[C@H]1C[C@@H](NC(=O)c2ccc3c(c2)sc2nc(-c4cccc(C)c4)cn23)C1` and give its measured Myc Efficacy (−LogEC50). ++ (++ ≥5 and <6)

----------
system: c-Myc; experiment: c-Myc immunofluorescence assay; assay type: cell-based, human; details: A549 cells, 24 hours treatment, anti-c-Myc immunofluorescence
Recorded Metric: Myc Efficacy (−LogEC50)

O=C(NCCCN1CCC(F)CC1)c1ccc2c(c1)sc1nc(-c3ccc([C@H]4CCCO4)cc3F)cn12 [Compound 428R]	++ (++ ≥5 and <6)
O=C(NCCCN1CCC(F)CC1)c1ccc2c(c1)sc1nc(-c3ccc([C@@H]4CCNC4)cc3F)cn12 [Compound 434S]	+++ (+++ ≥6)
CC[C@H](NC(=O)c1ccc2c(c1)sc1nc(-c3ccc(C(=O)NC)cc3)cn12)c1ccnn1C [compound 242]	+ (+ >3 and <5)
CCN(CC)CCCNC(=O)c1ccc2c(c1)sc1nc(-c3ccc(C(=O)NCCN)cc3)cn12 [compound 297]	+ (+ >3 and <5)
CNC(=O)c1ccc2c(c1)sc1nc(-c3ccc(C4CCCN4)cc3F)cn12 (stereo not shown) [Compound 498]	+++ (+++ ≥6)

// query Myc Efficacy (−LogEC50) value for entry CN1CCC(NC(=O)c2ccc3c(c2)sc2nc(-c4ccc(C5CCNCC5)cc4F)cn23)CC1 [compound 527] +++ (+++ ≥6)

----------
Tested on: c-Myc
Assay: c-Myc immunofluorescence assay
Type: cell-based, human
Settings: A549 cells, 24 hours treatment, anti-c-Myc immunofluorescence
Description: A549 human non-small cell lung carcinoma cells were treated for 24 hours with increasing compound concentration, cells were fixed and stained with a nuclei stain (DAPI) and anti-c-Myc fluorescent antibody. The c-Myc signal was quantified by image analysis, and data was exported and analyzed using TIBCO Spotfire® (TIBCO Corporation). […] Cell images were taken with Operetta (Perkin Elmer, USA), a wide-field fluorescence microscope at 20× magnification. […]
Recorded Metric: Myc Efficacy (−LogEC50)

Below, 8 molecules whose answers are already recorded.
CCN(CC)CCNC(=O)Nc1ccc2c(c1)sc1nc(-c3cccc(C)c3)cn12	+ (+ >3 and <5)
Cc1cccc(-c2cn3c(n2)sc2cc(C(=O)N4CCNCC4)ccc23)c1	+ (+ >3 and <5)
CNC(=O)c1ccc(-c2cn3c(n2)sc2cc(C(=O)NCCCN4CC5CC4CN5C)ccc23)cc1 (stereo not shown)	− (− ≤3)
CCN(CC)CCCNC(=O)c1ccc2c(c1)sc1nc(-c3ccc(C(=O)NCCOC)cc3)cn12	+ (+ >3 and <5)
CCNC(=O)c1ccc(-c2cn3c(n2)sc2cc(C(=O)NCCCN(CC)CC)ccc23)cc1	+ (+ >3 and <5)
CNC(=O)c1ccc(-c2cn3c(n2)sc2cc(C(=O)NCC4CC(O)C4)ccc23)cc1 (stereo not shown)	− (− ≤3)
CN1CCC(NC(=O)c2ccc3c(c2)sc2nc(-c4ccc(C5CNCCO5)cc4F)cn23)CC1 (stereo not shown)	+++ (+++ ≥6)
CNC(=O)c1ccc(-c2cn3c(n2)sc2cc(C(=O)NCC4(C)CC4)ccc23)cc1	− (− ≤3)

# query: Myc Efficacy (−LogEC50) of entry `CNC(=O)c1ccc(-c2cn3c(n2)sc2cc(C(=O)NCCN4CCN(C)CC4)ccc23)cc1` + (+ >3 and <5)

For the molecule `CCN(CC)CCCNC(=O)c1ccc2c(c1)sc1nc(-c3cc(C)ccc3F)cn12` , what Myc Efficacy (−LogEC50) is on record? + (+ >3 and <5)

Look at this molecule and give its reported Myc Efficacy (−LogEC50). `CN1CC[C@@H](NC(=O)c2ccc3c(c2)sc2nc(-c4ccc([C@@H]5CCCN5)cc4F)cn23)[C@@H](F)C1` ++ (++ ≥5 and <6)

# input molecule: `C#CCCC1(CCOc2ccccc2-c2cn3c(n2)sc2cc(C(=O)NCCCN4CCCCC4)ccc23)N=N1` ; wanted: its Myc Efficacy (−LogEC50) ++ (++ ≥5 and <6)

Bench note: what Myc Efficacy (−LogEC50) did `CNC(=O)c1ccc(-c2cn3c(n2)sc2cc(C(=O)N[C@H]4COC[C@@H]4O)ccc23)cc1` show? + (+ >3 and <5)

Please give the measured Myc Efficacy (−LogEC50) for this molecule: `CNC(=O)c1ccc(-c2cn3c(n2)sc2cc(C(=O)N[C@H]4C[C@@H](NC)C4)ccc23)cc1` + (+ >3 and <5)

Field request: Myc Efficacy (−LogEC50) | item: `CCN(CC)CCCNC(=O)c1ccc2c(c1)sc1nc(-c3ccc(CN)cc3)cn12` +++ (+++ ≥6)

May I ask what Myc Efficacy (−LogEC50) has been recorded for `C#CCCC1(CCNC(=O)c2ccc(-c3cn4c(n3)sc3cc(C(=O)NCCCN(CC)CC)ccc34)cc2)N=N1` ? + (+ >3 and <5)

----------
system: c-Myc; experiment: c-Myc immunofluorescence assay; format: cell-based, human; conditions: A549 cells, 24 hours treatment, anti-c-Myc immunofluorescence
Recorded Metric: Myc Efficacy (−LogEC50)

Solved cases (5 shown):
CNC(=O)c1ccc(-c2cn3c(n2)sc2cc(C(=O)NC4CCCC(N)C4)ccc23)cc1 (stereo not shown) [compound 270]	+ (+ >3 and <5)
CNC(=O)c1ccc(-c2cn3c(n2)sc2cc(C(=O)N4CCN(CC(N)=O)CC4)ccc23)cc1 [compound 250]	+ (+ >3 and <5)
O=C(NC1COCOC1)c1ccc2c(c1)sc1nc(-c3ccc(C4CCCN4)cc3F)cn12 (stereo not shown) [compound 545]	+++ (+++ ≥6)
CNC(=O)c1ccc(-c2cn3c(n2)sc2cc(C(=O)NC(C)CCO)ccc23)cc1 (stereo not shown) [compound 187]	− (− ≤3)
NC1(c2ccc(-c3nc4sc5cc(C(=O)NCCCN6CCCCC6)ccc5n4n3)cc2)CC1 [compound 398]	++ (++ ≥5 and <6)

I have this compound here, CNC(=O)c1ccc(-c2cn3c(n2)sc2cc(C(=O)N[C@H]4CN5CCC4CC5)ccc23)cc1 [compound 231] , and I need its recorded Myc Efficacy (−LogEC50). − (− ≤3)

Myc Efficacy (−LogEC50) for CCN(CC)CCCN(C)C(=O)c1ccc2c(c1)sc1nc(-c3ccc(C(=O)NC)cc3F)cn12 [compound 333] ? + (+ >3 and <5)

May I ask what Myc Efficacy (−LogEC50) has been recorded for C#CCCC1(CCN2CC[C@H](CNC(=O)c3ccc4c(c3)sc3nc(-c5ccc(C)cc5)cn34)C2)N=N1 [compound 324] ? ++ (++ ≥5 and <6)

Entry CCN(CC)CCCNC(=O)c1ccc2c(c1)sc1nc(-c3ccc(C(NC)C(F)(F)F)cc3)cn12 (stereo not shown) [compound 218] : reported Myc Efficacy (−LogEC50) = ? ++ (++ ≥5 and <6)

Look up Myc Efficacy (−LogEC50): CCN(CC)CCCNC(=O)c1ccc2c(c1)sc1nc(-c3ccc(CNC4CC4)cc3F)nn12 [compound 395] ++ (++ ≥5 and <6)

Dear colleague, I am looking for the recorded Myc Efficacy (−LogEC50) of the following compound: CCN(CC)CCCNC(=O)c1ccc2c(c1)sc1nc(-c3ccc(C4(N)CC4)cc3)nn12 [compound 397] ++ (++ ≥5 and <6)
